Please provide measured glycan array binding signal (z-score) for the entries that follow.
Test system: Gal(a1-3)Gal(b1-3)GlcNAc(b1-3)GalNAc
Method notes: glycan array binding signal (z-score within array); higher = stronger binding
Assay setup: glycan notation: IUPAC condensed, linker removed
Shown is part of a subset that was picked to be rich in the strongest signals.
No unit in the answer, please; the number alone is enough.

Look at this binder and give its reported glycan array binding signal (z-score). Gal 9 (Canis lupus) (protein) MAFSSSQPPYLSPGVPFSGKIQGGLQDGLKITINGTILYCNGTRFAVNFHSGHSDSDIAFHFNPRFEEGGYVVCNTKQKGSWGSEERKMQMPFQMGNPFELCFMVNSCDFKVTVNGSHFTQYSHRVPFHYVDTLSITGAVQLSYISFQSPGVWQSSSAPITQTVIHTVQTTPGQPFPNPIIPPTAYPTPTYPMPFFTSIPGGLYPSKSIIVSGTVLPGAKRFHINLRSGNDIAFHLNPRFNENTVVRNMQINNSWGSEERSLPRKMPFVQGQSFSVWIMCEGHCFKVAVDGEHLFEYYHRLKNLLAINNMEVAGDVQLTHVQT
0.104

Now this one: DrGal3 (Danio rerio) (protein) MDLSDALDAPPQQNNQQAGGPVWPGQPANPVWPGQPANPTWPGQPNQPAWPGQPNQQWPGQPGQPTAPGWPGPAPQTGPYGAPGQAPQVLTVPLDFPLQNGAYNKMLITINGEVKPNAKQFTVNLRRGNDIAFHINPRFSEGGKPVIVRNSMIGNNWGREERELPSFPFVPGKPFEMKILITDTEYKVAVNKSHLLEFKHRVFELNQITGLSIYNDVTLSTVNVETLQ
-0.287
